- Tested on: SF-295
- ASSAY: NCI tumour cell line growth inhibition, 48 h
Calls of active or inactive are those of the source. Rule as the data show it: active = GI50 up to about 1.1 µM and inactive = higher.
Field 'call' accepts True for active, False for inactive

In: Outcome logged for O=S(=O)(O)c1cccc2c(/N=N/c3c(O)ccc4ccccc34)cccc12 in this assay:
Out: False

In: Outcome logged for CCCCOP(=O)(OCCCC)/C(C#N)=C/c1ccco1 in this assay:
Out: False

In: Outcome logged for O=S(=O)(O)c1cc(/N=N/c2cccc3ccccc23)c(O)c2ncccc12 in this assay:
Out: False

In: Outcome logged for C/C(=N\NC(=S)N1CCN(c2ccccn2)CC1)c1ncccn1 in this assay:
Out: True

In: Outcome logged for C[C@@H]1CCC2C(C)(C)C(/C=C\C=O)C3(C)OC213 (stereo partly specified) in this assay:
Out: False

In: Outcome logged for O=C1CCCCC1=C(I)I in this assay:
Out: False

###

- Test system: HCT-116
- ASSAY: NCI tumour cell line growth inhibition, 48 h
Activity calls are given as the source filed them. Rule as the data show it: active = GI50 up to about 1.1 µM and inactive = higher.
Would you kindly list GI50 for each of these compounds?

In: Any idea what its GI50 is? The compound is OC(c1ccccc1)(c1ccccc1)c1nccc2ccccc12
Out: 27.9 µM (inactive)

In: Any idea what its GI50 is? The compound is Cc1ccc(C(=O)N/N=C(\N=N\c2cccc(Cl)c2)c2ccc(N(CCC#N)CCC#N)cc2C)cc1
Out: > 100 µM (inactive)

In: Any idea what its GI50 is? The compound is S=C(Nc1ccc2c(c1)oc1ccccc12)c1cccs1
Out: > 100 µM (inactive)

In: Any idea what its GI50 is? The compound is O=[N+]([O-])c1cc2ncc(-c3ccccc3)c(O)c2cc1/C(Cl)=C/c1ccccc1
Out: 6.89 µM (inactive)

In: Any idea what its GI50 is? The compound is N#Cc1c(N)c2c(c(-c3ccccc3)c1-c1ccccc1)C(=O)N(NC(=O)c1ccccc1)C2=O
Out: 19.6 µM (inactive)

In: Any idea what its GI50 is? The compound is CCCNC(=O)Cn1c2c(c3ccccc31)CCCC2
Out: 29.2 µM (inactive)

###

- Test system: OVCAR-8
- ASSAY: NCI tumour cell line growth inhibition, 48 h
Active and inactive are the calls of the source. Rule as the data show it: active = GI50 up to about 1.1 µM and inactive = higher.
EXPERIMENTAL_ENDPOINT: GI50

In: Any idea what its GI50 is? The molecule is O=C(O)CN1C(=O)CN=C(c2ccccn2)c2cc(Cl)ccc21
Out: > 100 µM (inactive)

In: Any idea what its GI50 is? The molecule is O=C(Nc1ccccc1)N(CCCCN(Cc1ccccc1)C(=O)Nc1ccccc1)Cc1ccccc1
Out: > 100 µM (inactive)

In: Any idea what its GI50 is? The molecule is COc1ncc(C=C(C#N)C#N)c(OC)n1
Out: 24.2 µM (inactive)

In: Any idea what its GI50 is? The molecule is CC1=C(C(=O)CC(=O)C(=O)Nc2ccccc2C(F)(F)F)Sc2ccccc2N1
Out: 50 µM (inactive)

In: Any idea what its GI50 is? The molecule is Cn1c(-c2cccs2)cc(-c2cccs2)c1-c1ccsc1
Out: > 100 µM (inactive)

In: Any idea what its GI50 is? The molecule is COc1cc2oc(-c3ccc4c(c3)OCO4)c(OC)c(=O)c2c(OC)c1OC
Out: 53.3 µM (inactive)

In: Any idea what its GI50 is? The molecule is CNC(=S)Nc1ccc(OC)c2ccccc12
Out: > 10 µM (inactive)

In: Any idea what its GI50 is? The molecule is CCOc1ccc([Se][Se]c2ccc(OCC)cc2)cc1
Out: > 100 µM (inactive)

In: Any idea what its GI50 is? The molecule is CC(C)N1CN(c2ccccc2)C2(CCN(CCCC(=O)c3ccc(F)cc3)CC2)C1=O
Out: 24 µM (inactive)

In: Any idea what its GI50 is? The molecule is COC(=O)[C@H](Cc1c[nH]c2ccccc12)NC(=O)OCC1OC(n2cc(C)c(=O)[nH]c2=O)CC1N=[N+]=[N-] (stereo not given in full)
Out: > 100 µM (inactive)

###

- Test system: SK-MEL-28
- ASSAY: NCI tumour cell line growth inhibition, 48 h
Active and inactive are the calls of the source. Cut-off read from the data, not from the text of the source: active = GI50 up to about 1.1 µM and inactive = higher.
Would you kindly list GI50 for each of these compounds?

In: Form: Entry = COC(C)(C)CCc1[nH]c2ccccc2c1CC(=O)NCCc1cncn1C | System = SK-MEL-28 | GI50 = ____
Out: > 100 µM (inactive)

In: Form: Entry = COC(=O)/C=C/c1ccc2c(c1)CC1(C2)Cc2cc3c(cc2C1=O)CCC3 (stereo not given) | System = SK-MEL-28 | GI50 = ____
Out: > 100 µM (inactive)

In: Form: Entry = COc1ccc(-c2cc(-c3ccco3)c(C#N)c(=O)n2C2OC(OC(=O)c3ccccc3)C(OC(=O)c3ccccc3)C2OC(=O)c2ccccc2)cc1 (stereo not given) | System = SK-MEL-28 | GI50 = ____
Out: > 100 µM (inactive)

In: Form: Entry = Nc1cccc(C2CCCc3c2[nH]c2ccccc32)c1 (stereo not given) | System = SK-MEL-28 | GI50 = ____
Out: 26.5 µM (inactive)

In: Form: Entry = COc1cc(OC)c2nc3occc3c(OC)c2c1 | System = SK-MEL-28 | GI50 = ____
Out: > 100 µM (inactive)

###

- System: PC-3
- ASSAY: NCI tumour cell line growth inhibition, 48 h
Active and inactive are the calls of the source. Rule as the data show it: active = GI50 up to about 1.1 µM and inactive = higher.
Field 'call' accepts 1 (active), 0 (inactive)

In: Outcome logged for COc1ccc2nc3cc(Cl)ccc3c(NCCCN(C)CCCNc3ccc4ncn5c6ccccc6c(=O)c3c45)c2c1 in this assay:
Out: 1

In: Outcome logged for C=C1C(=O)OC2CC(C)C3C=CC(=O)C3CC12 (stereo not given) in this assay:
Out: 0

In: Outcome logged for Cc1ccc(S(=O)(=O)N2CCN3C(=O)c4ccccc4C32c2ccc(F)cc2)cc1 (stereo not given) in this assay:
Out: 0

In: Outcome logged for O=C1CC(Nc2ccccc2)c2c(Cl)sc(Cl)c21 (stereo not given) in this assay:
Out: 0

In: Outcome logged for C/C=C(\C)C(=O)OC1/C=C(\C)CC/C=C(\C)CC2OC(=O)C(C)(OC(C)=O)C12 (stereo not given) in this assay:
Out: 0

In: Outcome logged for COC(=O)c1cc(C)n2c1CS[C@@H]2c1ccccc1 in this assay:
Out: 0

In: Outcome logged for O=c1[nH]/c(=C/c2ccc(OCc3ccccc3)cn2)c(=O)[nH]/c1=C/c1ccc(O)cc1 in this assay:
Out: 0

In: Outcome logged for CC(Cc1cccc2c1Nc1ccccc1S2)N(C)CCO (stereo not given) in this assay:
Out: 0

In: Outcome logged for COc1c(C)c(OC)c2c(c1O)[C@@H]1[C@@H]3Cc4c(OC)c(C)c(OC)c(O)c4[C@H](CNC(=O)c4ccc5ccccc5n4)N3[C@@H](C#N)[C@H](C2)N1C in this assay:
Out: 1

In: Outcome logged for CN(C)C(=O)CO/N=C1/C(=C2/C(=O)Nc3ccccc32)Nc2ccccc21 in this assay:
Out: 0

In: Outcome logged for CCOC(=O)CCCn1nnc(C(=O)OCC)c1C(=O)OCC in this assay:
Out: 0

In: Outcome logged for Nc1ccc(I)cn1 in this assay:
Out: 0

In: Outcome logged for C[C@]12C=CC(=O)C=C1CC[C@@H]1[C@@H]2CC[C@]2(C)OC(=O)CC[C@@H]12 [TESTOLACTONE] in this assay:
Out: 0

In: Outcome logged for CN(C)Cc1cc(/N=N/c2ccc(Cl)cc2)ccc1O in this assay:
Out: 0

In: Outcome logged for Cc1cc(NS(=O)(=O)c2ccc(NC(=O)c3ccc4nc5ccccc5c(Nc5ccc(S(=O)(=O)N=C(N)N)cc5)c4c3)cc2)no1 in this assay:
Out: 0

In: Outcome logged for C=C(C)[C@@H]1CCc2c(c(C)cc(O)c(=O)c2O)C1 in this assay:
Out: 0

In: Outcome logged for O=C1CCCC/C1=C\c1ccc(Br)cc1 in this assay:
Out: 0

In: Outcome logged for O=C1c2cccc3cc([N+](=O)[O-])cc(c23)C(=O)N1Nc1ccc([N+](=O)[O-])cc1[N+](=O)[O-] in this assay:
Out: 0

In: Outcome logged for O=C1c2ccccc2CC12Cc1ccc3c(c1C2=O)CCCC3 (stereo not given) in this assay:
Out: 0

In: Outcome logged for COC(C)C(O)(C(=O)OCC1=CCN2CCC(O)C12)C(C)(C)O (stereo not given) in this assay:
Out: 0

###

- System: MOLT-4
- ASSAY: NCI tumour cell line growth inhibition, 48 h
The source made the active and inactive calls. No stated cut-off is given here; in the data, active = GI50 up to about 1.1 µM and inactive = higher.
Field 'call' accepts active, inactive

In: Outcome logged for COC(=O)C(=O)C(C(=O)OC)C(=O)C(=O)Nc1cc(Cl)c(C)cc1S(=O)(=O)O (configuration not stated) in this assay:
Out: inactive

In: Outcome logged for COc1ccc(C)cc(O)c1=O in this assay:
Out: inactive

In: Outcome logged for COc1ccc2nc(C(=O)c3ccccc3)c(C)cc2c1 in this assay:
Out: inactive

In: Outcome logged for CN1C(=O)[C@](C)(Cc2ccc(F)cc2)N(C(=O)OC(C)(C)C)[C@@H]1C(C)(C)C in this assay:
Out: inactive

In: Outcome logged for CC1=NN(c2nc(N)nc(CSc3cc(Cl)c(C)cc3S(N)(=O)=O)n2)C(C)(C)C1 in this assay:
Out: inactive

In: Outcome logged for COc1cc2c[n+](C)c3c4cc(OC)c(OC)cc4c(OCc4ccccc4)cc3c2cc1OC in this assay:
Out: active

In: Outcome logged for C/C(CC(O)(C(F)(F)F)C(F)(F)F)=N\N in this assay:
Out: inactive

In: Outcome logged for CC(C)(C)c1c(C(C)(C)C)c(=O)c1=O in this assay:
Out: inactive

In: Outcome logged for O=C1CC23CCCCCCCCCCC2(C1)CC(=O)C3 (configuration not stated) in this assay:
Out: inactive

In: Outcome logged for O=c1[nH]nc(Cc2c[nH]c3ccccc23)o1 in this assay:
Out: inactive

In: Outcome logged for O=C(COc1ccccc1Cl)N1N=C(c2ccc(Cl)cc2)CC1(O)c1ccccc1 (configuration not stated) in this assay:
Out: inactive

In: Outcome logged for CC(=O)O[C@H]1C(=O)[C@@]2(C)[C@H]([C@H](OC(=O)c3ccccc3)[C@]3(O)C[C@H](OC(=O)[C@H](O)[C@@H](NC(=O)c4ccc(N)cc4)c4ccccc4)C(C)=C1C3(C)C)[C@]1(OC(C)=O)CO[C@@H]1C[C@@H]2O in this assay:
Out: active

In: Outcome logged for CCCCCCCCCCCCP(=O)(O)OCC(N)C(=O)O (configuration not stated) in this assay:
Out: inactive

In: Outcome logged for O=C1OC(CC(=O)c2ccc(Cl)cc2Cl)C(Cl)=C1Cl (configuration not stated) in this assay:
Out: inactive

In: Outcome logged for O=P(O)(O)CCP(=O)(O)O in this assay:
Out: inactive

In: Outcome logged for O=C(O)c1cccc(/N=N/c2c(S(=O)(=O)O)ccc3c2C(=O)c2ccccc2C3=O)c1O in this assay:
Out: inactive

In: Outcome logged for C=C1C(=O)OC2CC(C)C3C=CC(=O)C3CC12 (configuration not stated) in this assay:
Out: inactive

In: Outcome logged for OC(c1ccccc1)(c1ccccc1)c1nccc2ccccc12 in this assay:
Out: inactive

In: Outcome logged for Cc1cccc2c3ccc4c(c3n(C)c12)C(=O)C=CC4=O in this assay:
Out: inactive

In: Outcome logged for O=C1CCSc2c(cnc3ccccc23)N1 in this assay:
Out: inactive

In: Outcome logged for C=C(C)C[C@H](Sc1nc2ccccc2s1)[C@H](C)O in this assay:
Out: inactive

In: Outcome logged for COc1ccc(-c2nnc3nc4ccccc4n3c2O)cc1 in this assay:
Out: inactive
